# TEST_SYSTEM: Protein FosB (Mus musculus) (UniProt P13346)
# Sequence (P13346 whole entry, looked up): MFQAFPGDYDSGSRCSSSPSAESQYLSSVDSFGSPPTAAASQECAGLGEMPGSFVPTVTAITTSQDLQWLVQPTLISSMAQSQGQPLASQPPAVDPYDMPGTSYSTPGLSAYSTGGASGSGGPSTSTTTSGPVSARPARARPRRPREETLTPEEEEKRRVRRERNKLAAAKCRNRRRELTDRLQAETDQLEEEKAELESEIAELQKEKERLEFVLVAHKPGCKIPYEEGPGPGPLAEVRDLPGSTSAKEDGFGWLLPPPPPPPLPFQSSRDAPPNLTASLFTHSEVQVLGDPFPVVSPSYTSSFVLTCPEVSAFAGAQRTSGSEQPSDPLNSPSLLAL
# TEST: activators of delta FosB homodimer, primary screen, biochemical, fluorescence polarization, TAMRA-CDK5 oligo, single point (AID 493131);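 note: fluorescence polarization rise as delta FosB binds a TAMRA Cdk5 AP-1 oligo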
# STATED_CONDITIONS: purified delta FosB, at 25 µM, percent of positive-control signal above neutral wells
The campaign covered roughly 340,000 compounds. About 3,300 (0.97%) were called active.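 Rule for the calls: active = mean activation above about 17%, with every replicate also reaching it (limit read from the data, passing the limit was not always enough); inconclusive = only one of the two conditions met; inactive = the rest.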 This is one part of a sample in which actives are shown more often than they occur.
Labels: active, inactive

COMPOUND	CLASS_ASSIGNMENT
COc1ccc(C(=O)n2nc(-c3ccc(C)cc3)nc2N)cc1OC	inactive
Cc1cccc(Nc2nnc(SCC(=O)c3c(N)n(C4CC4)c(=O)[nH]c3=O)s2)c1C	inactive
Cc1ccc(CC2CC(=O)N(c3ccc4c(c3)OCCO4)C2=O)cc1 (stereo not drawn)	inactive
O=C(CN1C(=O)c2cccc3cccc(c23)C1=O)N1CCCCC1	inactive
COC(=O)c1ccc(CNC(=O)c2ccc3oc(C(C)C)nc3c2)cc1	inactive
O=c1c2ccccc2oc2nc(C3CCCCC3)n(Cc3ccco3)c(=O)c12	active
COc1ccc2nc(C)cc(Nc3cccc(C(=O)O)c3)c2c1	inactive
CCCc1nnc(SCC(=O)Nc2ccc(C(=O)OCC)cc2)o1	inactive
COc1ccc2sc(-c3ccc(N(C)C)cc3)c(C#CCO)c2c1	inactive
COc1ccc2c(c1)c(=Cc1ccc(N(C)C)cc1)c1cc(-c3ccccc3)[n+](C)n12	active
O=C(NCCN=C1NS(=O)(=O)c2ccccc21)c1ccc(S(=O)(=O)N2CCOCC2)cc1	inactive
O=C(COC(=O)c1ccc(S(=O)(=O)N2CCc3ccccc3C2)cc1)NC(=O)NCc1ccco1	active
CC(Oc1cc2oc(=O)c3c(c2cc1Cl)CCCC3)C(=O)NCc1ccncc1 (stereo not drawn)	inactive
Fc1ccc(-c2ccc(CNCc3ccccn3)o2)cc1Cl	inactive
CN(CCNC(=O)c1cc2c(-c3ccccc3F)nn(C)c2s1)C1CCCCC1	inactive
O=C(CS(=O)(=O)c1ccccc1)Nc1ccc(S(=O)(=O)Nc2ccccn2)cc1	inactive
Nc1ccc(C(=O)OCC(=O)NC2CCCc3ccccc32)cc1[N+](=O)[O-] (stereo not drawn)	active
CCCC(=O)N(CCN1CCOCC1)c1nc2ccc(OCC)cc2s1	inactive
O=C(Nc1ccc(Br)cc1)c1cc(S(=O)(=O)Nc2ccccn2)ccc1Cl	active
COc1ccc(C(=O)n2nc(C)c(Br)c2C)cc1OC	inactive
O=C(NN=CC=Cc1ccccc1)C(O)C(O)C(=O)NN=CC=Cc1ccccc1 (stereo not drawn)	inactive
CCc1ccc2nc(N(CCCN(C)C)C(=O)c3ccc4c(c3)OCCO4)sc2c1	inactive
Cn1nc(C(C)(C)C)c(NC(=O)c2sccc2Cl)c1C(C)(C)C	inactive
Nc1ccc(C(=O)OCC(=O)NC2CCS(=O)(=O)C2)cc1[N+](=O)[O-] (stereo not drawn)	inactive
C/C(CC(=O)Nc1cccc(C(F)(F)F)c1)=N\NC(=O)C(=O)NCC(C)C	inactive
CCOC(=O)C1=C(C)N(C[C@@H]2CC[C@@H](Cc3ccc(-c4ccccc4)cc3)O2)C(=O)NC1c1ccc([N+](=O)[O-])cc1 (stereo partly drawn)	inactive
CCn1nc(C)c(/C=N/NC(=O)Cc2ccc(Cl)cc2)c1C	inactive
O=C(NCCCN1CCOCC1)c1cc2c(s1)CCC2	inactive
COc1cccc(/C=N/NC(=O)CNC(=O)c2ccc(S(=O)(=O)N3CCOCC3)cc2)c1OC	inactive
COc1ccc(/C=N/NC(=O)c2ccncc2)cc1CN1CCCc2ccccc21	inactive
Cn1cccc1/C=C1\SC(=O)N(CC(=O)Nc2ccc(F)cc2)C1=O	active
CC(NC(=O)c1cccc(S(=O)(=O)N2CCc3ccccc3C2)c1)c1ccco1 (stereo not drawn)	inactive
CCN(CC)CCNc1ccc(Cl)cc1[N+](=O)[O-]	inactive
COc1ccc2c(c1)c(C(=O)N/N=C/c1cccs1)c(C)n2C	inactive
NC(=O)Nc1ccc(C(=O)OCC(=O)NC2CCCc3ccccc32)cc1 (stereo not drawn)	inactive
Cc1ccc(C(C)C)c(OCCSc2nc3ccccc3n2CC(=O)O)c1	inactive
Cc1nn(CC(=O)Nc2ccc(F)cc2)c(=O)c2ccccc12	inactive
Cc1cccc2c1-c1sc(C(=O)NCCCN3CCc4ccccc4C3)cc1CO2	active
Cc1nc(/N=C(\N)NC(=O)NC2CCCCC2)nc2ccccc12	inactive
O=C(Nc1ccc(S(=O)(=O)Nc2ccccn2)cc1)c1ccccc1	inactive
CC(C)c1cc(C(=O)N/N=C/C(Br)=C/c2ccccc2)n[nH]1	inactive
COc1cccc(/C=N/NC(=O)c2[nH]nc3c2CCc2ccccc2-3)c1O	active
C=CCn1c2ccccc2c2nnc(SCc3[nH]c(=O)[nH]c3C(=O)CCCCC(=O)OCC)nc21	inactive
